Recorded IC50 by entry
# Study system: ATM (Homo sapiens (Human))
# Sequence (Q13315 whole entry): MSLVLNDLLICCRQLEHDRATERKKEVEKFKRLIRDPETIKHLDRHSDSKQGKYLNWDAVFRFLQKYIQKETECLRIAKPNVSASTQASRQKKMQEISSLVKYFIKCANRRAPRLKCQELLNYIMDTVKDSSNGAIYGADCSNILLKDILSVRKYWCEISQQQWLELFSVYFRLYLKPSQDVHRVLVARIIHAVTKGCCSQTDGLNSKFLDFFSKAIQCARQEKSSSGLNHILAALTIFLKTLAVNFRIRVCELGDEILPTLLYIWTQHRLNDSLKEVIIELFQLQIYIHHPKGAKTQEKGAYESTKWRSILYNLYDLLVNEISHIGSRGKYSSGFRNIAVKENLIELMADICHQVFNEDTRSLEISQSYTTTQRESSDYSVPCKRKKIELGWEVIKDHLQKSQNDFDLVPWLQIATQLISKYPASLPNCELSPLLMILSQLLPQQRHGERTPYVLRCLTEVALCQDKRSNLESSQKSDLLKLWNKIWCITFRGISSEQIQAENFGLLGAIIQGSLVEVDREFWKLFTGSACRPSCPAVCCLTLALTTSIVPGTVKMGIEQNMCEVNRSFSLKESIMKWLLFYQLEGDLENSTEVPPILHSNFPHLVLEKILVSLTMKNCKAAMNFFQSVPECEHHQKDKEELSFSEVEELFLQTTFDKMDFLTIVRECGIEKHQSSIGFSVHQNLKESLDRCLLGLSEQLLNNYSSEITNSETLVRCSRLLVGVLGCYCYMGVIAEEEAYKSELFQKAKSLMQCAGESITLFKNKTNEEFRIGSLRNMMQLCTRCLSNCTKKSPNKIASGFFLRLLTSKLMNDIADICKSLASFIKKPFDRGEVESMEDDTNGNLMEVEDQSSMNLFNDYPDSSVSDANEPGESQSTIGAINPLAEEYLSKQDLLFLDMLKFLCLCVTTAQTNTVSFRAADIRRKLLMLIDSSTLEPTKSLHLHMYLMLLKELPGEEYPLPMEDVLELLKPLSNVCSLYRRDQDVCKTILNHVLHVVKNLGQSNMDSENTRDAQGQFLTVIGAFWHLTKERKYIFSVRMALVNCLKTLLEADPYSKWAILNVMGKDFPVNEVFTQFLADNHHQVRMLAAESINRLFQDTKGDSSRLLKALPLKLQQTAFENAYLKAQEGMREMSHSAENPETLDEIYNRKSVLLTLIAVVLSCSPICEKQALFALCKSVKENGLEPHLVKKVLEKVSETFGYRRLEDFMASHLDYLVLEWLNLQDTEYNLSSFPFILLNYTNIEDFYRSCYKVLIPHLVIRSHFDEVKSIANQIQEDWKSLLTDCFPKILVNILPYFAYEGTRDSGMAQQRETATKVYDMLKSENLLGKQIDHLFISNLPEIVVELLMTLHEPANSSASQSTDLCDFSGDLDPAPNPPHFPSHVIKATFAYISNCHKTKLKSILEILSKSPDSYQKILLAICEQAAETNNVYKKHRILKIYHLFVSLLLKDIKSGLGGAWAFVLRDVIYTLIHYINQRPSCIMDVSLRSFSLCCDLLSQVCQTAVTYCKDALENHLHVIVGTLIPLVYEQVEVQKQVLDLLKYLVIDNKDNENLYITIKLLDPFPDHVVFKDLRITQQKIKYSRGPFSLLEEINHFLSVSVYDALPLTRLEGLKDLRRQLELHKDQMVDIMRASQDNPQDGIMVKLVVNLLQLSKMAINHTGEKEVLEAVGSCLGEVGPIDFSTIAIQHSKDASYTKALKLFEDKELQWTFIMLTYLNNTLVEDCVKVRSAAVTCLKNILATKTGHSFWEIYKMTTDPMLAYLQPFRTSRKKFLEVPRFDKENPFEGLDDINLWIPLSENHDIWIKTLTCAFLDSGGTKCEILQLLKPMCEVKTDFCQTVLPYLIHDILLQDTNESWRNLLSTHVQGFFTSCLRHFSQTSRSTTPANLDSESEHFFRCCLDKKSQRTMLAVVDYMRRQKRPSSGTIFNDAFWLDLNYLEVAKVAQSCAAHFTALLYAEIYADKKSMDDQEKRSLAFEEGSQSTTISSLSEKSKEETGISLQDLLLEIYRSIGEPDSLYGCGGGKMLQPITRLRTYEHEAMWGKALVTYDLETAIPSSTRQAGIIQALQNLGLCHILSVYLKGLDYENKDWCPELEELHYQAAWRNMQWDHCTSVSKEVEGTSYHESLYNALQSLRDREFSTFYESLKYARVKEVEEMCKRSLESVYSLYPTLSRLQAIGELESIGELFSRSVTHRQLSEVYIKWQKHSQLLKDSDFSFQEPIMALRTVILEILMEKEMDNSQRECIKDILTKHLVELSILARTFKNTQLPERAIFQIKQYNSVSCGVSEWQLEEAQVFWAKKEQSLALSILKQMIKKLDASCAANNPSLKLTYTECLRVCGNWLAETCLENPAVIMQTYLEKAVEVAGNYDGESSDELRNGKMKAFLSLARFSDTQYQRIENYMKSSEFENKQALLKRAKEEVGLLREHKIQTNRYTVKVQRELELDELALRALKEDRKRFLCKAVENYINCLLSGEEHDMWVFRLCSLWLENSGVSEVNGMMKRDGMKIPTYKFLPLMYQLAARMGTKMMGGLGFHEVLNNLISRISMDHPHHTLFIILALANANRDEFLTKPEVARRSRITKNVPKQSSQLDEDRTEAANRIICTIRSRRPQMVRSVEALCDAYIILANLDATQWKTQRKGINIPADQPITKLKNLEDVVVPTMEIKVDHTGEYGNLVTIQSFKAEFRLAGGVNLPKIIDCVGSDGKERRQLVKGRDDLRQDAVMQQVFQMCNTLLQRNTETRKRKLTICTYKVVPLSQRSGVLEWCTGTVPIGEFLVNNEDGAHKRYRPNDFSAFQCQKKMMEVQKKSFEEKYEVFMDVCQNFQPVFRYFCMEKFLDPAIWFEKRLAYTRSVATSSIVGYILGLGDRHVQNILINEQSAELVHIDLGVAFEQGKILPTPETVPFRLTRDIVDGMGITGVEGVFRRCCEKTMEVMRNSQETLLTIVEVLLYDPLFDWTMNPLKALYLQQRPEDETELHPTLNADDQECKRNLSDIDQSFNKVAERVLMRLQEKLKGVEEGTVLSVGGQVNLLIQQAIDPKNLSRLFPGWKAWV
# Run description: ATM in Cell Western Assay (pKAP1 in etoposide-treated MCF-7 cells)
# Assay type: cell-based
# Recorded conditions: pKAP1 in etoposide-treated MCF-7 cells

// below: answered compounds
1. CC(C)NCCOc1ncc(-c2cc3c(cc2F)ncc2c3[C@]3(C[C@@H](COC(C)C)C3)C(=O)N2C)cc1NS(C)(=O)=O	1 to 100 nM
2. CC(C)N1CC2(C1)C(=O)N(C)c1cnc3cc(F)c(-c4cnc(N5CCC(N6CCCCC6)CC5)c(NS(C)(=O)=O)c4)cc3c12	1 to 100 nM

Recorded IC50 for CCO[C@H]1C[C@@]2(C1)C(=O)N(C)c1cnc3cc(F)c(-c4cnc(OCCNC(C)C)c(NS(C)(=O)=O)c4)cc3c12 on ATM (Homo sapiens (Human)) was 1 to 100 nM
